# Tested on: OVCAR-5 complex spheroids, viability
# assay-overview: Anticancer human tumor OVCAR-5 cell line growth inhibition;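 further: spheroids exposed to agents for seven days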;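 on viability, T/C: 100% = DMSO vehicle control wells viability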
# experimental-context: second compound 10 µM; first compound 0.1 µM; stronger effect = lower value
viability, T/C values by entry
Just the number in %, nothing appended.

These solved cases illustrate the format of a correct answer.
>>> assay_result("CC(C)c1c(-c2ccccc2)nc2c(C#N)c[nH]n2c1=O + NC1CC1c1ccc(-c2cccc(O)c2)cc1")
91
>>> assay_result("CC[C@@]1(O)C(=O)OCc2c1cc1n(c2=O)Cc2cc3c(CN(C)C)c(O)ccc3nc2-1 + NC1CCC(NC2CC2c2ccccc2)CC1")
27.7

query: For the molecule shown here, CC1COCCN1c1cc(C2(S(C)(=N)=O)CC2)nc(-c2ccnc3[nH]ccc23)n1 (stereo not drawn) + NC1CCC(NC2CC2c2ccccc2)CC1 , give the reported viability, T/C.
result: 82.4

query: For the molecule shown here, Cn1ncnc1C1c2n[nH]c(=O)c3cc(F)cc(c23)NC1c1ccc(F)cc1 (stereo not drawn) + NC1CC1c1ccc(-c2cccc(O)c2)cc1 , give the reported viability, T/C.
result: 80.3

query: For the molecule shown here, CC1(C)CCC(CN2CCN(c3ccc(C(=O)NS(=O)(=O)c4ccc(NCC5CCOCC5)c([N+](=O)[O-])c4)c(Oc4cnc5[nH]ccc5c4)c3)CC2)=C(c2ccc(Cl)cc2)C1 + NC1CC1c1ccc(-c2cccc(O)c2)cc1 , give the reported viability, T/C.
result: 85

query: For the molecule shown here, COc1cc(Nc2ncc3c(n2)-c2ccc(Cl)cc2C(c2c(F)cccc2OC)=NC3)ccc1C(=O)O + NC1CCC(NC2CC2c2ccccc2)CC1 , give the reported viability, T/C.
result: 57.6

query: For the molecule shown here, CC1COCCN1c1cc(C2(S(C)(=N)=O)CC2)nc(-c2ccnc3[nH]ccc23)n1 (stereo not drawn) + NC1CC1c1ccc(-c2cccc(O)c2)cc1 , give the reported viability, T/C.
result: 78.6

query: For the molecule shown here, CC1COCCN1c1cc(-c2ccnn2C)c2ccnc(-c3ccn[nH]3)c2n1 (stereo not drawn) + NC1CCC(NC2CC2c2ccccc2)CC1 , give the reported viability, T/C.
result: 41.9

query: For the molecule shown here, COc1ccc([C@@H](O)c2cc(-c3ncnc4cc(N5CCOCC5)ccc34)c(F)cc2Cl)nn1 + NC1CCC(NC2CC2c2ccccc2)CC1 , give the reported viability, T/C.
result: 83

query: For the molecule shown here, CC1(C)CCC(CN2CCN(c3ccc(C(=O)NS(=O)(=O)c4ccc(NCC5CCOCC5)c([N+](=O)[O-])c4)c(Oc4cnc5[nH]ccc5c4)c3)CC2)=C(c2ccc(Cl)cc2)C1 + NC1CCC(NC2CC2c2ccccc2)CC1 , give the reported viability, T/C.
result: 93.3

====

# Test system: OVCAR-5 complex spheroids, viability
# assay-overview: Anticancer human tumor OVCAR-5 cell line growth inhibition;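 further: spheroids exposed to agents for seven days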
# experimental-context: curve of first compound; second compound 0.316 µM
IC50 strictly under 200 nM means fulfilled; at 200 nM or over means not fulfilled.

>>> answer_label("CC1COCCN1c1cc(C2(S(C)(=N)=O)CC2)nc(-c2ccnc3[nH]ccc23)n1 (stereo not drawn) + NC1CC1c1ccc(-c2cccc(O)c2)cc1")
"not fulfilled"
>>> answer_label("CC1COCCN1c1cc(C2(S(C)(=N)=O)CC2)nc(-c2ccnc3[nH]ccc23)n1 (stereo not drawn) + NC1CCC(NC2CC2c2ccccc2)CC1")
"not fulfilled"
>>> answer_label("O=C(c1cc(Cc2n[nH]c(=O)c3ccccc23)ccc1F)N1CCN(C(=O)C2CC2)CC1 + NC1CC1c1ccc(-c2cccc(O)c2)cc1")
"not fulfilled"
>>> answer_label("Nc1ccccc1NC(=O)c1ccc(CNC(=O)OCc2cccnc2)cc1 + NC1CCC(NC2CC2c2ccccc2)CC1")
"not fulfilled"
>>> answer_label("CCN(c1cc(-c2ccc(CN3CCOCC3)cc2)cc(C(=O)NCc2c(C)cc(C)[nH]c2=O)c1C)C1CCOCC1 + NC1CCC(NC2CC2c2ccccc2)CC1")
"not fulfilled"
>>> answer_label("CC(C)c1c(-c2ccccc2)nc2c(C#N)c[nH]n2c1=O + NC1CC1c1ccc(-c2cccc(O)c2)cc1")
"not fulfilled"
>>> answer_label("CC1COCCN1c1cc(-c2ccnn2C)c2ccnc(-c3ccn[nH]3)c2n1 (stereo not drawn) + NC1CC1c1ccc(-c2cccc(O)c2)cc1")
"fulfilled"
>>> answer_label("O=C(C=Cn1cnc(-c2cc(C(F)(F)F)cc(C(F)(F)F)c2)n1)NNc1cnccn1 + NC1CC1c1ccc(-c2cccc(O)c2)cc1")
"fulfilled"
>>> answer_label("Nc1ccn(C2OC(CO)C(O)C2(F)F)c(=O)n1 (stereo not drawn) + NC1CCC(NC2CC2c2ccccc2)CC1")
"fulfilled"
>>> answer_label("CC[C@@]1(O)C(=O)OCc2c1cc1n(c2=O)Cc2cc3c(CN(C)C)c(O)ccc3nc2-1 + NC1CC1c1ccc(-c2cccc(O)c2)cc1")
"fulfilled"

query: # TODO verify IC50 < 200 nM strictly for this compound: O=C(C=Cn1cnc(-c2cc(C(F)(F)F)cc(C(F)(F)F)c2)n1)NNc1cnccn1 + NC1CCC(NC2CC2c2ccccc2)CC1
result: not fulfilled

query: # TODO verify IC50 < 200 nM strictly for this compound: CCN(c1cc(-c2ccc(CN3CCOCC3)cc2)cc(C(=O)NCc2c(C)cc(C)[nH]c2=O)c1C)C1CCOCC1 + NC1CC1c1ccc(-c2cccc(O)c2)cc1
result: not fulfilled

query: # TODO verify IC50 < 200 nM strictly for this compound: COc1cc(C2c3cc4c(cc3C(OC3OC5COC(C)OC5C(O)C3O)C3COC(=O)C23)OCO4)cc(OC)c1O (stereo not drawn) + NC1CCC(NC2CC2c2ccccc2)CC1
result: not fulfilled

query: # TODO verify IC50 < 200 nM strictly for this compound: Nc1ncn(C2CC(O)C(CO)O2)c(=O)n1 (stereo not drawn) + NC1CCC(NC2CC2c2ccccc2)CC1
result: not fulfilled

====

# System: OVCAR-5 complex spheroids, viability
# assay-overview: Anticancer human tumor OVCAR-5 cell line growth inhibition;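 further: spheroids exposed to agents for seven days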;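 on viability, T/C: 100% = DMSO vehicle control wells viability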
# experimental-context: second compound 10 µM; first compound 0.001 µM; stronger effect = lower value
viability, T/C values by entry

>>> assay_result("CC(C)CC(NC(=O)C(Cc1ccccc1)NC(=O)c1cnccn1)B(O)O (centres undefined) + NC1CCC(NC2CC2c2ccccc2)CC1")
"82.3%"
>>> assay_result("Cn1ncnc1C1c2n[nH]c(=O)c3cc(F)cc(c23)NC1c1ccc(F)cc1 (centres undefined) + NC1CC1c1ccc(-c2cccc(O)c2)cc1")
"96.6%"
>>> assay_result("CC(C)CC(NC(=O)CNC(=O)c1cc(Cl)ccc1Cl)B1OC(=O)CC(CC(=O)O)(C(=O)O)O1 (centres undefined) + NC1CCC(NC2CC2c2ccccc2)CC1")
"79.8%"

Could you now look at the following compound, please?
query: For the compound shown here, CC(C)CC(NC(=O)C(Cc1ccccc1)NC(=O)c1cnccn1)B(O)O (centres undefined) + NC1CC1c1ccc(-c2cccc(O)c2)cc1 , give the reported viability, T/C.
result: 87%

====

# Test system: OVCAR-5 complex spheroids, viability
# assay-overview: Anticancer human tumor OVCAR-5 cell line growth inhibition;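 further: spheroids exposed to agents for seven days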;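 on viability, T/C: 100% = DMSO vehicle control wells viability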
# experimental-context: second compound 10 µM; first compound 10 µM; stronger effect = lower value
property-name: viability, T/C

These solved cases illustrate the format of a correct answer.
>>> assay_result("O=C(c1cc(Cc2n[nH]c(=O)c3ccccc23)ccc1F)N1CCN(C(=O)C2CC2)CC1 + NC1CCC(NC2CC2c2ccccc2)CC1")
"61.1%"
>>> assay_result("CC1COCCN1c1cc(C2(S(C)(=N)=O)CC2)nc(-c2ccnc3[nH]ccc23)n1 (stereo not given) + NC1CCC(NC2CC2c2ccccc2)CC1")
"34%"
>>> assay_result("CC(C)c1c(-c2ccccc2)nc2c(C#N)c[nH]n2c1=O + NC1CC1c1ccc(-c2cccc(O)c2)cc1")
"73.5%"
>>> assay_result("CC(C)c1c(-c2ccccc2)nc2c(C#N)c[nH]n2c1=O + NC1CCC(NC2CC2c2ccccc2)CC1")
"79.3%"
>>> assay_result("COc1ccc([C@@H](O)c2cc(-c3ncnc4cc(N5CCOCC5)ccc34)c(F)cc2Cl)nn1 + NC1CCC(NC2CC2c2ccccc2)CC1")
"25.6%"
>>> assay_result("CC1COCCN1c1cc(C2(S(C)(=N)=O)CC2)nc(-c2ccnc3[nH]ccc23)n1 (stereo not given) + NC1CC1c1ccc(-c2cccc(O)c2)cc1")
"27%"
>>> assay_result("CC1(C)CCC(CN2CCN(c3ccc(C(=O)NS(=O)(=O)c4ccc(NCC5CCOCC5)c([N+](=O)[O-])c4)c(Oc4cnc5[nH]ccc5c4)c3)CC2)=C(c2ccc(Cl)cc2)C1 + NC1CC1c1ccc(-c2cccc(O)c2)cc1")
"38.9%"
>>> assay_result("CC1(C)CCC(CN2CCN(c3ccc(C(=O)NS(=O)(=O)c4ccc(NCC5CCOCC5)c([N+](=O)[O-])c4)c(Oc4cnc5[nH]ccc5c4)c3)CC2)=C(c2ccc(Cl)cc2)C1 + NC1CCC(NC2CC2c2ccccc2)CC1")
"24.9%"

query: For the molecule shown here, O=C(c1cc(Cc2n[nH]c(=O)c3ccccc23)ccc1F)N1CCN(C(=O)C2CC2)CC1 + NC1CC1c1ccc(-c2cccc(O)c2)cc1 , give the reported viability, T/C.
result: 60.2%

query: For the molecule shown here, COc1ccc([C@@H](O)c2cc(-c3ncnc4cc(N5CCOCC5)ccc34)c(F)cc2Cl)nn1 + NC1CC1c1ccc(-c2cccc(O)c2)cc1 , give the reported viability, T/C.
result: 16.6%

Entry source: PubChem BioAssay AID1918956
